Sourced from the supplement of paper PMC7877785

- assay remarks: self-splicing fitness, log relative to wild type (ln ratio); higher = more splicing; Tetrahymena group I intron in knt gene, E. coli kanamycin selection, DiMSum; sequences stand for … in CUCUCU…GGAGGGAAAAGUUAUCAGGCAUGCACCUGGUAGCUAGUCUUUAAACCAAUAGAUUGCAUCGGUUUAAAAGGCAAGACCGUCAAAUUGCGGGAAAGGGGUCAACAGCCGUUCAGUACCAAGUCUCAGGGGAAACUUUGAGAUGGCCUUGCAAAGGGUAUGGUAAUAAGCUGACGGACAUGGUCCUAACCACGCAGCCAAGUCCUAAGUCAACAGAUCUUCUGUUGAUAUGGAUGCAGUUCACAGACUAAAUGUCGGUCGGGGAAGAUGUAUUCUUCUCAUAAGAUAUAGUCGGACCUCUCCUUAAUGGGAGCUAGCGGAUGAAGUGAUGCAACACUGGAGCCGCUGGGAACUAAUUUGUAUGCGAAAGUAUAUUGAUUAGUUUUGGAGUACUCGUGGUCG;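 also: selection with 25 µg/mL kanamycin versus none on LB agar overnight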
- condition context: 37 °C
property name: self-splicing fitness (ln)
# output: bare number, no unit

seq string: CCUCAGCAAUAUUACGGCCA
self-splicing fitness (ln): -2.62
--
seq string: UCUGAGCAAUAUUACGCAUC
self-splicing fitness (ln): -2.47
--
seq string: ACGCAGCAAUAUUACGGGUC
self-splicing fitness (ln): -2.92
--
seq string: GUGAAGCAAUAUUACGUCAG
self-splicing fitness (ln): -0.996
--
seq string: UCAAAGCAAUAUUACGGGAG
self-splicing fitness (ln): -2.5

Problem: Dear colleague, please send me the reported self-splicing fitness (ln) for ACACAGCAAUAUUACGCCCA when you can.
Result: -0.603

Problem: Note self-splicing fitness (ln) for the sequence shown: GACGAGCAAUAUUACGCGUU
Result: -2.88

Problem: Answer with the recorded self-splicing fitness (ln) for the sequence listed here: CCUGAGCAAUAUUACGCGUC
Result: -3.02

Problem: Give self-splicing fitness (ln) for the following sequence: ACGGAGCAAUAUUACGUGGU
Result: -1.08

Problem: Return self-splicing fitness (ln) for the following sequence: UCGCAGCAAUAUUACGCCUA
Result: 0.0885

Problem: Please list self-splicing fitness (ln) recorded for the sequence GGUAAGCAAUAUUACGCUAA
Result: 0.0407

---

- assay remarks: self-splicing fitness, log relative to wild type (ln ratio); higher = more splicing; Tetrahymena group I intron in knt gene, E. coli kanamycin selection, DiMSum; sequences stand for … in CUCUCU…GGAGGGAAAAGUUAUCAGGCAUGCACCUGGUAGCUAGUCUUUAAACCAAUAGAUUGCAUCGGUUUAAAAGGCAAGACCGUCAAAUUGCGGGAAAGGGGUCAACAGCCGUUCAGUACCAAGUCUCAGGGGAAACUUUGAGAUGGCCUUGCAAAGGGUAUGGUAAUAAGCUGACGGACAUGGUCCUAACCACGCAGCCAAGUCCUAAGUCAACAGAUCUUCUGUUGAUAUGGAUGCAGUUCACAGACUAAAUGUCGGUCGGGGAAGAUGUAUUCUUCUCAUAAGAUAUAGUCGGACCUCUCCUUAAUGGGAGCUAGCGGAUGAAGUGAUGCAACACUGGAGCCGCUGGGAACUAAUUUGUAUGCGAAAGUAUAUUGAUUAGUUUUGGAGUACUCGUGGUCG
- condition context: 37 °C
Recorded self-splicing fitness (ln) by entry

Known self-splicing fitness (ln) results, listed for orientation:
seq string: GUGAAGCAAUAUUACGUGCU
self-splicing fitness (ln): -0.974

seq string: AGAUAGCAAUAUUACGCCUU
self-splicing fitness (ln): -0.255

seq string: UAAAAGCAAUAUUACGUGAC
self-splicing fitness (ln): -3.43

Problem: Return reported self-splicing fitness (ln). Input sequence: CAUCAGCAAUAUUACGUCUA
Result: -1.58

Problem: # return recorded self-splicing fitness (ln) for input GAUAAGCAAUAUUACGUAAC
Result: -0.811

Problem: Tell me measured self-splicing fitness (ln) for CUACAGCAAUAUUACGUCGC please.
Result: -2.11

Problem: Please report self-splicing fitness (ln) for the following sequence: CUUCAGCAAUAUUACGCUUU
Result: -2.85

Problem: Report self-splicing fitness (ln), nothing else, for this sequence: ACCCAGCAAUAUUACGCGCA
Result: -0.299

---

self-splicing fitness (ln) by entry:
- assay remarks: self-splicing fitness, log relative to wild type (ln ratio); higher = more splicing; Tetrahymena group I intron in knt gene, E. coli kanamycin selection, DiMSum; sequences stand for … in CUCUCU…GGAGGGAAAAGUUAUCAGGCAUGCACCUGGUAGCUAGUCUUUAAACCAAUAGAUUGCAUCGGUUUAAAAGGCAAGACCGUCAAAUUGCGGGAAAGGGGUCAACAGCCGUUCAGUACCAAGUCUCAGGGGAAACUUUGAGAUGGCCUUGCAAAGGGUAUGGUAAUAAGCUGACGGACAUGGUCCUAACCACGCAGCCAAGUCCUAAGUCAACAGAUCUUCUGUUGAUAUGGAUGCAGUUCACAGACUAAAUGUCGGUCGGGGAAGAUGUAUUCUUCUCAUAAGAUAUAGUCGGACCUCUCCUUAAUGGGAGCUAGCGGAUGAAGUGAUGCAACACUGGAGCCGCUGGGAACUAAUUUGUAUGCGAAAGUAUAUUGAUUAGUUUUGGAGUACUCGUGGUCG
- condition context: 30 °C
API doc: respond with a numeric literal and nothing else, no unit.

Sample answers from the record:
seq string: CGCUAGCAAUAUUACGGCUC
self-splicing fitness (ln): -1.15
--
seq string: AAAAAGCAAUAUUACGAACU
self-splicing fitness (ln): -0.488
--
seq string: UUCCAGCAAUAUUACGACAA
self-splicing fitness (ln): -0.945
--
seq string: UCCAAGCAAUAUUACGUGAG
self-splicing fitness (ln): -2.37
--
seq string: AUAGAGCAAUAUUACGAUAG
self-splicing fitness (ln): -3.43

Let's switch to this sequence now.
Problem: Hello, please tell me recorded self-splicing fitness (ln) for this one: GGGCAGCAAUAUUACGCGCU
Result: -2.33

---

- assay remarks: self-splicing fitness, log relative to wild type (ln ratio); higher = more splicing; Tetrahymena group I intron in knt gene, E. coli kanamycin selection, DiMSum; sequences stand for … in CUCUCU…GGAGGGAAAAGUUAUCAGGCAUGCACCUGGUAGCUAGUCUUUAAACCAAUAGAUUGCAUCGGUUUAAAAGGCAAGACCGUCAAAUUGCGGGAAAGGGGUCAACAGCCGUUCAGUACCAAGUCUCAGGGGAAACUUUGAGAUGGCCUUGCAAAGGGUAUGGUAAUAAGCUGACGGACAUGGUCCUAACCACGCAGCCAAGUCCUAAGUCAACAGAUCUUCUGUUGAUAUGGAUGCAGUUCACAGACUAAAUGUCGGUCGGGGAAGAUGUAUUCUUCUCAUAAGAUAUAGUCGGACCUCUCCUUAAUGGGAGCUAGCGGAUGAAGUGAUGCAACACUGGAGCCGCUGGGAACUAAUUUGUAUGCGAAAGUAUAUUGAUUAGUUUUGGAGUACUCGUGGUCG
- condition context: 37 °C
Entries and their self-splicing fitness (ln)
The reply should be a number, written without any unit.

Reference set (3 entries):
seq string: GCAGAGCAAUAUUACGUCCC
result value: -1.04
//
seq string: UAUGAGCAAUAUUACGCGGG
result value: -1.6
//
seq string: UCGUAGCAAUAUUACGUUGU
result value: -2.43

Problem: Report self-splicing fitness (ln), nothing else, for this sequence: GGUGAGCAAUAUUACGGGAC
Result: -1.85

Problem: Read the entry CACGAGCAAUAUUACGACGU and write its reported self-splicing fitness (ln).
Result: -3.34

Problem: Please give measured self-splicing fitness (ln) of the following entry: AAGUAGCAAUAUUACGCAAC
Result: -2.87

Problem: Give the reported self-splicing fitness (ln) for this sequence. AGGAAGCAAUAUUACGGAUA
Result: -2.01

---

- assay remarks: self-splicing fitness, log relative to wild type (ln ratio); higher = more splicing; Tetrahymena group I intron in knt gene, E. coli kanamycin selection, DiMSum; sequences stand for … in CUCUCU…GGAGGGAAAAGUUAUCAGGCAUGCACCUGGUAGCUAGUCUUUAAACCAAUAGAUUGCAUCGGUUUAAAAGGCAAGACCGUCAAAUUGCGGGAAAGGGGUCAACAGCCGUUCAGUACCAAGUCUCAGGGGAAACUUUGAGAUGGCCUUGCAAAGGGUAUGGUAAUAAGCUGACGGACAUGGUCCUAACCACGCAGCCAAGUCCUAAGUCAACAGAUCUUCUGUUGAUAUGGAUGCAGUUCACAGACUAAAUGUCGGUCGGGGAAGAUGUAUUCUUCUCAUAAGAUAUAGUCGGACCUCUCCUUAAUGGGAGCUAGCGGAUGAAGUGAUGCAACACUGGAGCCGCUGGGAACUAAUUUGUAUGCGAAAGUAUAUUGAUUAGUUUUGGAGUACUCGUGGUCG
- condition context: 37 °C
# self-splicing fitness (ln) values compiled below
// return a plain number; no unit text

Guide cases for self-splicing fitness (ln), answers given:
seq string: ACAGAGCAAUAUUACGCAAC
self-splicing fitness (ln): -2.1
--
seq string: AUAGAGCAAUAUUACGAUUA
self-splicing fitness (ln): -0.158
--
seq string: ACAAAGCAAUAUUACGAGCC
self-splicing fitness (ln): -1.97

Kindly consider the entry below.
Problem: Entry CCGUAGCAAUAUUACGGAUA needs its self-splicing fitness (ln) filled in; supply it.
Result: -2.16
